This collection of values is drawn from patent US20250034170A1.

Target: GCase (Homo sapiens, UniProt P04062)
Construct: endogenous in cells; host or cells: HeLa cells
Sequence (P04062 40-536): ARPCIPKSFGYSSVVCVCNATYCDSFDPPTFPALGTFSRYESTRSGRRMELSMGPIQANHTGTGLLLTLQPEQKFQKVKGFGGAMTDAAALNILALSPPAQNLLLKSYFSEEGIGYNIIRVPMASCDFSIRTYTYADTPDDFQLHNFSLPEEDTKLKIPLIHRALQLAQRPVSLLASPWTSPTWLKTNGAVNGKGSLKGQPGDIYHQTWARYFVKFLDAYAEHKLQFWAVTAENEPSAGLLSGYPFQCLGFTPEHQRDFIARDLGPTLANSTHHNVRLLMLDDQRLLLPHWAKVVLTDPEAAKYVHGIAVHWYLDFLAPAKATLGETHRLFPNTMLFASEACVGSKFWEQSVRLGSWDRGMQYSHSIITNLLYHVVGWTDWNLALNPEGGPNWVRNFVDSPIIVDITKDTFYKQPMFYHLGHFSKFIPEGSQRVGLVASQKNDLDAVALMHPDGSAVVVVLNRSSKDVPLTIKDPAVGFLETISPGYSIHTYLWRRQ
Test: activation of GCase in a live cell PFB assay in HELA cells
Format: cell-based
Conditions: activation of GCase, EC50 ranges
Experimental: Exemplary compounds were evaluated for activation of GCase in a live cell PFB assay in HELA cells (essentially as described in Ysselstein et al., “LRRK2 kinase activity regulates lysosomal glucocerebrosidase in neurons derived from Parkinson's disease patients” Nature Communications (2019) 10:5570). […] EC50 ranges: A: <10 μM; B: >10-50 μM; C: >50-100 μM; D: >100 μM.
In this section, each of the compounds is paired with its reported EC50.

{"Compound": "O=C1N(c2cnc3cnn(CC(F)F)c3n2)CCC12CCN(c1ncccc1C(F)(F)F)CC2 [Compound 120]", "EC50": "< 10 µM"}
{"Compound": "FC(F)(F)c1ccc(N2CCC3(CCN(c4nccn5cncc45)CC3)C2)cn1 [Cmpd 240]", "EC50": "50 to 100 µM"}
{"Compound": "FC(F)(F)c1ccnc(N2CC3(CCN(c4ncc5cnn(C6COC6)c5n4)CC3)C2)c1 [Cmpd 478]", "EC50": "< 10 µM"}
{"Compound": "O=C1CC2(CCN(c3cnc4cnn(CC(F)F)c4n3)CC2)CN1Cc1ccc(C(F)(F)F)cc1 [Cmpd 443]", "EC50": "< 10 µM"}
{"Compound": "Cc1nn(C2COC2)c2nc(N3CCC4(CN(c5ccnc(C(F)(F)F)c5)C4)C3)cnc12 [Cmpd 931]", "EC50": "10 to 50 µM"}
{"Compound": "O=C1CC2(CCN(c3cnc4cnn(CC(F)F)c4n3)CC2)CN1c1ncccc1C(F)(F)F [Cmpd 686]", "EC50": "> 100 µM"}

Tell me the measured EC50 of Cc1cc(N2CC3(CCN(c4ncc5c(C)nn(CC(F)F)c5n4)C3)C2)nc(C(F)(F)F)n1 [Cmpd 468] , please.
< 10 µM

Tell me the measured EC50 of FC(F)Cn1ncc2ncc(N3CC4(CC(COc5ccc(C(F)(F)F)nc5)C4)C3)nc21 [Compound 133] , please.
< 10 µM

* * *

target: GCase (Homo sapiens); construct: endogenous in cells; host or cells: HeLa cells; experiment: activation of GCase in a live cell PFB assay in HELA cells; type: cell-based; conditions: activation of GCase, EC50 ranges
Readout kind: EC50

Here is how some compounds turned out for EC50.
{"Compound": "O=C1N(c2nc(C(F)(F)F)co2)CCC12CCN(c1cnc3cnn(CC(F)F)c3n1)CC2 [Cmpd 838]", "System": "GCase (Homo sapiens)", "EC50": "10 to 50 µM"}
{"Compound": "CCn1c(N2CCC3(CN(c4nnc(C(F)(F)F)s4)C3)C2)nc2c(cnn2CC(F)F)c1=O [Cmpd 1050]", "System": "GCase (Homo sapiens)", "EC50": "10 to 50 µM"}
{"Compound": "CCN1C(=O)N(c2ccc(C(F)(F)F)nc2)C(=O)C12CCN(c1cnc3c(C)nn(CC(F)F)c3n1)CC2 [Cmpd 871]", "System": "GCase (Homo sapiens)", "EC50": "10 to 50 µM"}
{"Compound": "O=C1CC2(CN(c3cnc4cnn(CC(F)F)c4n3)C2)CN1c1ccnc(C(F)(F)F)c1 [Cmpd 338]", "System": "GCase (Homo sapiens)", "EC50": "10 to 50 µM"}
{"Compound": "O=C1N(c2cc(C(F)(F)F)ccn2)CCC12CCN(c1cnc3cnn(C4COC4)c3n1)CC2 [Cmpd 273]", "System": "GCase (Homo sapiens)", "EC50": "10 to 50 µM"}

Tell me the measured EC50 of O=C(Cc1csc(-c2ccccc2)n1)N1CC2(CCCN(c3ccccc3)C2)C1 [Compound 58] , please.
10 to 50 µM

Tell me the measured EC50 of CCc1nn(C2COC2)c2nc(N3CCC4(CN(c5ccnc(C(F)(F)F)c5)C4)C3)ncc12 [Cmpd 1070] , please.
< 10 µM

Tell me the measured EC50 of Cc1nc(N2CC[C@]3(CCN(c4cnc5c(C)nn(C6COC6)c5n4)C3)C2)cc(C(F)(F)F)n1 [Cmpd 1122] , please.
10 to 50 µM

Tell me the measured EC50 of Cc1nc(OCC(F)(F)F)ncc1N1CC2(CCN(c3cnc4cnn(CC(F)F)c4n3)C2)C1 [Cmpd 959] , please.
10 to 50 µM

* * *

In this section, each of the molecules is paired with its reported EC50.
biological target: GCase (Homo sapiens, UniProt P04062); construct: endogenous in cells; host or cells: HeLa cells; experiment: activation of GCase in a live cell PFB assay in HELA cells; format: cell-based; details: activation of GCase, EC50 ranges

Here is how some molecules turned out for EC50.
{"Molecule": "Cc1cnc(C(F)(F)F)nc1N1CC2(CCN(c3cnc4cnn(CC(F)F)c4n3)C2)C1", "Value observed": "10 to 50 µM"}
{"Molecule": "O=C1N(c2ccc(C(F)(F)F)nc2)C(=O)C2(CCN(c3cnc4cnn(CC(F)F)c4n3)CC2)N1CCCC(F)(F)F", "Value observed": "< 10 µM"}
{"Molecule": "FC(F)(F)c1cncc(N2CCC3(CCN(c4cncc(-c5nncs5)n4)CC3)C2)c1", "Value observed": "50 to 100 µM"}
{"Molecule": "CC[C@@H]1N(c2ccnc(C(F)(F)F)c2)C(=O)CC12CCN(c1cnc3cnn(CC(F)F)c3n1)CC2", "Value observed": "10 to 50 µM"}
{"Molecule": "FC(F)Cn1ncc2ncc(N3CCCC4(CN(c5ccc(C(F)(F)F)nc5)C4)C3)nc21", "Value observed": "10 to 50 µM"}
{"Molecule": "Fc1cc(C(F)(F)F)cnc1N1CCC2(CCN(c3cnc4cnn(CC(F)F)c4n3)CC2)C1", "Value observed": "10 to 50 µM"}

We next turn to a different molecule, shown below.
Tell me the measured EC50 of CC1(C)C(=O)N(c2cc(C(F)(F)F)ccn2)CC12CCN(c1cnc3cnn(CC(F)F)c3n1)CC2 , please.
< 10 µM

* * *

Target: GCase (Homo sapiens, UniProt P04062)
Construct: endogenous in cells; host or cells: HeLa cells
Sequence (P04062 40-536): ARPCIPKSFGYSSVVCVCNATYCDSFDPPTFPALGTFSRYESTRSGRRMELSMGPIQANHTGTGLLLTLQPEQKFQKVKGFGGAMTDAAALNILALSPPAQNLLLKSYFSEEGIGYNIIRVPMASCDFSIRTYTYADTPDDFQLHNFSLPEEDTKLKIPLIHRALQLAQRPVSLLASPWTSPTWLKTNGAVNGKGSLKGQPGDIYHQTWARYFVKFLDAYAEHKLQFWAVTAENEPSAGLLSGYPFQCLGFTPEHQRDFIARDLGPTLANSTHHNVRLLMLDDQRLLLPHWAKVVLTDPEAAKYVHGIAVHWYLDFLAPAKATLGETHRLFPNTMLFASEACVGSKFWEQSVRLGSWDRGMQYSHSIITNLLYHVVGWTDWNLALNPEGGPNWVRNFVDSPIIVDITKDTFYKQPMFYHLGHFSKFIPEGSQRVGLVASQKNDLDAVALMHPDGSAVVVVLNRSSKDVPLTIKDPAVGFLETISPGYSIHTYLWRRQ
Assay: activation of GCase in a live cell PFB assay in HELA cells
Assay type: cell-based
Details: EC50 given as range classes
Readout kind: EC50

Here is how some compounds turned out for EC50.
{"Compound": "O=C1CCC2(CCN(c3cnc4cnn(CC(F)F)c4n3)C2)CN1c1cncc(C(F)(F)F)c1 (centres unmarked)", "EC50": "< 10 µM"}
{"Compound": "FC(F)(F)Cn1ncc2ncc(N3CCC4(CN(c5cnc(C(F)(F)F)nc5)C4)C3)nc21", "EC50": "10 to 50 µM"}
{"Compound": "Cc1ncc(N2CC3(CCN(c4ncc5c(C)nn(C6COC6)c5n4)C3)C2)c(C(F)(F)F)n1", "EC50": "50 to 100 µM"}
{"Compound": "Cc1nn(CC(F)F)c2nc(N3CCC4(CN(c5ccnc(C(F)(F)F)c5)C4)C3=O)cnc12", "EC50": "< 10 µM"}
{"Compound": "Cc1nn(CC(F)(F)F)c2nc(N3CCC4(CCN(c5cnc(C(F)(F)F)nc5)C4)C3)ncc12 (centres unmarked)", "EC50": "10 to 50 µM"}
{"Compound": "FC(F)Cn1ncc2ncc(N3CCC4(CN(c5ccnc(C(F)(F)F)c5)C4)C3)nc21", "EC50": "< 10 µM"}
{"Compound": "O=C(c1cccc(C(F)(F)F)c1)N1CC2(CCN(c3cnc4cnn(CC(F)F)c4n3)C2)C1", "EC50": "10 to 50 µM"}
{"Compound": "FC(F)Cn1ncc2ncc(N3CCC4(CN(c5cccc(OCC(F)(F)F)n5)C4)C3)nc21", "EC50": "10 to 50 µM"}
{"Compound": "Cc1ncc(CN2CC3(CCN(c4cnc5cnn(CC(F)F)c5n4)CC3)CC2=O)s1", "EC50": "10 to 50 µM"}
{"Compound": "Cc1nc(C(F)(F)F)cnc1N1CCC2(CCN(c3cnc4cnn(CC(F)F)c4n3)CC2)C1", "EC50": "< 10 µM"}

Tell me the measured EC50 of Cc1ncc(N2CCC3(CCN(c4cnc5cnn(CC(F)F)c5n4)CC3)C2)c(C(F)(F)F)n1 , please.
< 10 µM

Tell me the measured EC50 of Cc1nc(N2CC3(CCN(c4ccc5cnn(CC(F)F)c5n4)CC3)CC2=O)cc(C(F)(F)F)n1 , please.
< 10 µM

Tell me the measured EC50 of Cn1c(N2CCC3(CCN(c4cnc(C(F)(F)F)nc4)C3)CC2)nc2c(cnn2CC(F)(F)F)c1=O , please.
< 10 µM

Tell me the measured EC50 of O=C(c1ccc(OC(F)F)cc1)N1CC2(CCN(c3cnc4cnn(CC(F)F)c4n3)C2)C1 , please.
10 to 50 µM

Tell me the measured EC50 of COc1nc(C(F)(F)F)ccc1N1CC2(CCN(c3cnc4cnn(CC(F)F)c4n3)CC2)CC1=O , please.
< 10 µM
